- condition details: rat, acute test, intravenous injection
measure name: therapeutische Index (Q = LD₅₀/ED₂₀)

compound | therapeutische Index (Q = LD₅₀/ED₂₀)
CC[C@H]1C2C[C@H]3[C@@H]4N(C)c5ccccc5[C@]45C[C@@H]([C@@H]2[C@H]5O)[N@@+]3(CC(O)CN(CC)CC)[C@@H]1O (stereo partly shown) | 25,5
CCOC(=O)Nc1ccc2c(c1)N(C(=O)CCN1CCOCC1)c1ccccc1S2 | 1,8
CC[C@H]1[C@@H]2C[C@H]3[C@@H]4N(C)c5ccccc5[C@]45C[C@@H]([C@@H]2[C@H]5O)N3[C@@H]1O | 6,8

--- query ---
Query string: Look up therapeutische Index (Q = LD₅₀/ED₂₀): CCOc1ccccc1OCC(O)CNCCNCC(O)COc1ccccc1OCC (stereo not shown)
Result string: 11,5
